assay: Plasma concentration in SC dosed CD-1 mouse treated four times at 6 hrs interval measured after 24 hrs; assay type: ADME, organism-based
Metric: concentration at 24 h (ng/mL)
Number in ng/mL, nothing else.

query: Which concentration at 24 h is reported for this compound? CC(C)(O/N=C(\C(=O)N[C@H]1CN2CC(C(=O)NCCN3C(=O)c4cc(O)c(O)cc4C3=O)=C(C(=O)O)N2C1=O)c1nc(N)sc1Cl)C(=O)O
result: 601

====

test: Plasma protein binding in mouse; settings: read-out: PPB (converted)
Metric: fraction unbound
When you answer, write just the number.

query: Which fraction unbound is reported for this compound? CC(C)(O/N=C(\C(=O)N[C@H]1CN2CC(C(=O)NCCN3C(=O)c4cc(O)c(O)cc4C3=O)=C(C(=O)O)N2C1=O)c1nc(N)sc1Cl)C(=O)O
result: 0.06

====

experiment: Plasma concentration in SC dosed CD-1 mouse treated four times at 6 hrs interval measured after 6 hrs; type: ADME, organism-based
Metric: concentration at 6 h

query: Which concentration at 6 h is reported for this molecule? CC(C)(O/N=C(\C(=O)N[C@H]1CN2CC(C(=O)NCCN3C(=O)c4cc(O)c(O)cc4C3=O)=C(C(=O)O)N2C1=O)c1nc(N)sc1Cl)C(=O)O
result: 1320 ng/mL

====

target: COX-1 (Homo sapiens, UniProt P23219); assay: Inhibition of COX-1 (unknown origin) at 30 uM
Sequence (P23219 whole entry): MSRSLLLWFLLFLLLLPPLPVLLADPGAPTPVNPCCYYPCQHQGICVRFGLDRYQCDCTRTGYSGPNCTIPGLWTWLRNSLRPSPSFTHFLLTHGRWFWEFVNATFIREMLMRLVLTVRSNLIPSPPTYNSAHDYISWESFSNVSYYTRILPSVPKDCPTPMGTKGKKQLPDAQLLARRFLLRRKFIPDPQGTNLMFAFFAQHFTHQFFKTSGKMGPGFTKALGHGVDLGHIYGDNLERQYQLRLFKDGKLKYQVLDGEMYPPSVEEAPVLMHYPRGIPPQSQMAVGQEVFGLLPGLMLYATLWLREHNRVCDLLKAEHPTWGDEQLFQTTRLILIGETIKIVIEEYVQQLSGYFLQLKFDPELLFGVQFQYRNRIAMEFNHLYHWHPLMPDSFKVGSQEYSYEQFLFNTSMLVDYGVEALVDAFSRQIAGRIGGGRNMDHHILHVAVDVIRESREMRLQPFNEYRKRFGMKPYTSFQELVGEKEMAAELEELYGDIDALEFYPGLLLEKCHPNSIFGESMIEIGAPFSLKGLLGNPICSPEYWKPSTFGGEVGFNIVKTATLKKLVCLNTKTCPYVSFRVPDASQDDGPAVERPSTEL
Metric: inhibition at 30 µM

query: Which inhibition at 30 µM is reported for this molecule? CC(C)(O/N=C(\C(=O)N[C@H]1CN2CC(C(=O)NCCN3C(=O)c4cc(O)c(O)cc4C3=O)=C(C(=O)O)N2C1=O)c1nc(N)sc1Cl)C(=O)O
result: > 50%

====

assay: Plasma concentration in SC dosed CD-1 mouse treated four times at 6 hrs interval measured after 8 hrs; assay type: ADME, organism-based
Metric: concentration at 8 h (ng/mL)
Number in ng/mL, nothing else.

query: Which concentration at 8 h is reported for this molecule? CC(C)(O/N=C(\C(=O)N[C@H]1CN2CC(C(=O)NCCN3C(=O)c4cc(O)c(O)cc4C3=O)=C(C(=O)O)N2C1=O)c1nc(N)sc1Cl)C(=O)O
result: 1200

====

biological target: CYP2C8 (Homo sapiens); assay: Inhibition of CYP2C8 (unknown origin) at 100 uM; format: ADME
Sequence (P10632 whole entry): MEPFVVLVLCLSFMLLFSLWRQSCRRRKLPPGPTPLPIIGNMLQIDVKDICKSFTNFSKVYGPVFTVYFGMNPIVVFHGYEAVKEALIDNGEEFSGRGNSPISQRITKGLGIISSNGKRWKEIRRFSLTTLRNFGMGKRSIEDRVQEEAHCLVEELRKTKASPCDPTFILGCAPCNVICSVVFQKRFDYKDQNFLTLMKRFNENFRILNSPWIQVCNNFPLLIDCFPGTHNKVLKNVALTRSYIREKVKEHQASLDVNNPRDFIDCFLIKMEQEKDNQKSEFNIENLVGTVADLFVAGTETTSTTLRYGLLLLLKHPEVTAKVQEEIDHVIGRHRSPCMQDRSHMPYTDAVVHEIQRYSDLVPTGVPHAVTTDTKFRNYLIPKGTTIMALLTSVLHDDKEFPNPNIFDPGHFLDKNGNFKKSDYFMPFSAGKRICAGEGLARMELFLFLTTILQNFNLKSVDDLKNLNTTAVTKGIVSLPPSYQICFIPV
Metric: inhibition at 100 µM
Reply with the number and its unit after it.

query: Which inhibition at 100 µM is reported for this molecule? CC(C)(O/N=C(\C(=O)N[C@H]1CN2CC(C(=O)NCCN3C(=O)c4cc(O)c(O)cc4C3=O)=C(C(=O)O)N2C1=O)c1nc(N)sc1Cl)C(=O)O
result: 50%

====

target: PDE3A (Homo sapiens, UniProt Q14432); assay: Inhibition of PDE3A (unknown origin) at 30 uM
Sequence (Q14432 whole entry): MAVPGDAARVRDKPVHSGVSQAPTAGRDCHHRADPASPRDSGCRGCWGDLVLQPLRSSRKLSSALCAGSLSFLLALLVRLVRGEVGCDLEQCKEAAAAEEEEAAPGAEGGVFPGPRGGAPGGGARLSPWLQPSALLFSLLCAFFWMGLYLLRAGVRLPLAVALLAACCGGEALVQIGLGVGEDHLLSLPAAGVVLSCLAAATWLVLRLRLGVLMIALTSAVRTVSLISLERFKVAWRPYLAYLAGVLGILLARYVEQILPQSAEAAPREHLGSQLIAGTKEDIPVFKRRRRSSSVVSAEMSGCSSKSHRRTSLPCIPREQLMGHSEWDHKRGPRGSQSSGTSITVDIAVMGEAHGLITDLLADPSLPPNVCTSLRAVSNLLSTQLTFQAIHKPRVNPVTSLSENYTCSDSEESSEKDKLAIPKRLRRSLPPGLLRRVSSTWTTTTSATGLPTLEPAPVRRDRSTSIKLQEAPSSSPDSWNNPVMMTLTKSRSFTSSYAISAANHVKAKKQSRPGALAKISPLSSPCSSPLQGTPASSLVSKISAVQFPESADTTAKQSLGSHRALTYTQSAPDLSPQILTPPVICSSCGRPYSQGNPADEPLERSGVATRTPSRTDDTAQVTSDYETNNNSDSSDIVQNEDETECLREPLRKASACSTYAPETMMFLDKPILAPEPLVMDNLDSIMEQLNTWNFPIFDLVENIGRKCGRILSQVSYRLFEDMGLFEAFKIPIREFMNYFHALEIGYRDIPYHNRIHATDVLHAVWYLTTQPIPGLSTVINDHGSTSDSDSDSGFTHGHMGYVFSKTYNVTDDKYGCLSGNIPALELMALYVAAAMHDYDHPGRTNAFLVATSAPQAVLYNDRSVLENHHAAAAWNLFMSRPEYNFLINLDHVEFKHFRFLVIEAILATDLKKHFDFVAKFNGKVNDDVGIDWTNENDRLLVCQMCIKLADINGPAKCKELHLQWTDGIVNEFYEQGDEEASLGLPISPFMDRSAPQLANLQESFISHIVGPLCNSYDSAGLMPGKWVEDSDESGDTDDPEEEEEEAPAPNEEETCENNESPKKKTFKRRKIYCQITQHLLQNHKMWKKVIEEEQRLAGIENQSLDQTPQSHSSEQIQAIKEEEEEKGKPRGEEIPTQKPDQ
Metric: inhibition at 30 µM

query: Which inhibition at 30 µM is reported for this molecule? CC(C)(O/N=C(\C(=O)N[C@H]1CN2CC(C(=O)NCCN3C(=O)c4cc(O)c(O)cc4C3=O)=C(C(=O)O)N2C1=O)c1nc(N)sc1Cl)C(=O)O
result: > 50%

====

test: Plasma concentration in SC dosed CD-1 mouse treated four times at 6 hrs interval measured after 0.5 hrs; format: ADME, organism-based
Metric: concentration at 0.5 h (ng/mL)
Number in ng/mL, nothing else.

query: Which concentration at 0.5 h is reported for this compound? CC(C)(O/N=C(\C(=O)N[C@H]1CN2CC(C(=O)NCCN3C(=O)c4cc(O)c(O)cc4C3=O)=C(C(=O)O)N2C1=O)c1nc(N)sc1Cl)C(=O)O
result: 16200
